B1: TPR 5TU (parent)
chain: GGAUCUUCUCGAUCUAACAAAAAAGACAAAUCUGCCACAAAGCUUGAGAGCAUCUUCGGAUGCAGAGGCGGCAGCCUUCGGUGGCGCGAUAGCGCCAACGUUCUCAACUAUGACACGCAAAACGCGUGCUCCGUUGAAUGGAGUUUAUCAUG

# Variants of: B1
# assay.text: polymerase ribozyme fitness, log enrichment relative to wild type (log ratio); higher = more active; in vitro selection for triplet polymerase activity
Fewer inactive variants are shown than the library holds.
Think of -2 as a floor: if polymerase ribozyme fitness (log ratio) stands on it or above, it is fulfilled; beneath it, not fulfilled.

| mutations | label.value |
| --- | --- |
| C69G G126U C131A | not fulfilled |

Exercise: Would you say G83U U139G shows polymerase ribozyme fitness (log ratio) at minimum -2?
Solution: fulfilled

Exercise: Would you say G58U U61A U90A A142G shows polymerase ribozyme fitness (log ratio) at minimum -2?
Solution: not fulfilled

Exercise: Would you say C38U A40C G81A A91G C125G shows polymerase ribozyme fitness (log ratio) at minimum -2?
Solution: not fulfilled

Exercise: Would you say C57G A150G shows polymerase ribozyme fitness (log ratio) at minimum -2?
Solution: fulfilled

Exercise: Would you say C38U C95U shows polymerase ribozyme fitness (log ratio) at minimum -2?
Solution: fulfilled

Exercise: Would you say C54U U78A G86U U104C C105A U130G C132A G136A shows polymerase ribozyme fitness (log ratio) at minimum -2?
Solution: not fulfilled

Exercise: Would you say U53G G80C shows polymerase ribozyme fitness (log ratio) at minimum -2?
Solution: not fulfilled

Exercise: Would you say A49C U61G G62A G81C shows polymerase ribozyme fitness (log ratio) at minimum -2?
Solution: not fulfilled

Exercise: Would you say C5U A20C C43G C76G C108G C114U A120U U146G shows polymerase ribozyme fitness (log ratio) at minimum -2?
Solution: not fulfilled

Exercise: Would you say A12U C14U A21U A49G C75G C116U A121C U146G U151G shows polymerase ribozyme fitness (log ratio) at minimum -2?
Solution: not fulfilled

Exercise: Would you say G58C U61C G70C C76G C96U A138G G140U C149G shows polymerase ribozyme fitness (log ratio) at minimum -2?
Solution: not fulfilled

Exercise: Would you say A23U C38U shows polymerase ribozyme fitness (log ratio) at minimum -2?
Solution: not fulfilled

Exercise: Would you say A52C C57U G81C shows polymerase ribozyme fitness (log ratio) at minimum -2?
Solution: fulfilled

Exercise: Would you say A19C A20U C85U G136A shows polymerase ribozyme fitness (log ratio) at minimum -2?
Solution: fulfilled

Exercise: Would you say A39G U101C shows polymerase ribozyme fitness (log ratio) at minimum -2?
Solution: fulfilled

Exercise: Would you say C87A G124U shows polymerase ribozyme fitness (log ratio) at minimum -2?
Solution: not fulfilled

Exercise: Would you say C5G U9A C54U U146C shows polymerase ribozyme fitness (log ratio) at minimum -2?
Solution: not fulfilled

Exercise: Would you say A41C G58C U82G A106G A137G shows polymerase ribozyme fitness (log ratio) at minimum -2?
Solution: not fulfilled

Exercise: Would you say A20C U53A C54A G59A G84A G124C shows polymerase ribozyme fitness (log ratio) at minimum -2?
Solution: not fulfilled

Exercise: Would you say U13A A39U C54G C79U G81U G94U U139C G140U shows polymerase ribozyme fitness (log ratio) at minimum -2?
Solution: not fulfilled

Exercise: Would you say G42C A47C C57U G81C C95A shows polymerase ribozyme fitness (log ratio) at minimum -2?
Solution: not fulfilled
